Assay: Agonist activity at STING in human THP1 cells assessed as stimulation of IRF3 pathway measured after 20 hrs by luciferase reporter gene assay
pEC50: −log10 of the molar value.
Property measured: pEC50

Here are 6 molecules together with their reported answers.
[
  {
    "Molecule": "CCCn1c(NC(=O)c2ccnn2C)nc2cc(C(N)=O)cc(OC)c21",
    "Meas value": "< 4.00"
  },
  {
    "Molecule": "CCCn1c(NC(=O)c2ccnn2CC)nc2cc(C(N)=O)cc(OC)c21",
    "Meas value": "< 4.00"
  },
  {
    "Molecule": "CCCn1c(NC(=O)c2cncn2C)nc2cc(C(N)=O)cc(OC)c21",
    "Meas value": "< 4.00"
  },
  {
    "Molecule": "CCn1nc(C)cc1C(=O)Nc1nc2cccc(OC)c2n1CCCNC(=O)OCc1ccccc1",
    "Meas value": "< 4.00"
  },
  {
    "Molecule": "CCCn1c(NC(=O)c2nccc3ccccc23)nc2cc(C(N)=O)cc(OC)c21",
    "Meas value": "< 4.00"
  },
  {
    "Molecule": "CCn1nc(C)cc1C(=O)Nc1nc2cc(C(N)=O)cc(OC)c2n1CCCNC(=O)OCc1ccccc1",
    "Meas value": 6.06
  }
]

Query: pEC50; subject: CCn1nc(C)cc1C(=O)Nc1nc2cc(C(=O)OC)cc(OC)c2n1CCCNC(=O)OCc1ccccc1
Response: 4.68

Query: Try NC(=O)c1cc(OCCCN2CCOCC2)c2c(c1)nc(NC(=O)c1cccnn1)n2CCCNC(=O)OCc1ccccc1 next.
Response: < 4.00

Query: Try COc1cc(C(N)=O)cc2nc(NC(=O)C3CCCN3C)n(CCCNC(=O)OCc3ccccc3)c12 (centres undefined) next.
Response: < 4.00
